measured_metric: pIC50
# reply with the number alone; pIC50 is -log10 of concentration in mol/L

Form: item CC(=O)N[C@@H]1[C@@H](N)CC(C(=O)O)=C[C@H]1OC1CCSC1 (stereo partly specified) ; test system Neuraminidase (Influenza A virus (strain A/USSR/90/1977 H1N1), UniProt P03469, H274Y); pIC50: 7.17

Source: ChEMBL document CHEMBL5331047
